Values of pKd reported for Epidermal growth factor receptor (Homo sapiens, UniProt P00533) appear below.
// pKd here means minus log10 of the molar concentration (mol/L)

Item COCCOc1cc2ncnc(Nc3cc(OC)c(OC)c(OC)c3)c2cc1OCCOC : provide pKd
7.28

Read off the recorded pKd for C#Cc1cccc(Nc2ccnc3cc(OC)c(OC)cc23)c1
9.57

Return reported pKd. Input compound: COc1cc(Nc2ncnc3ccc(C(F)(F)F)cc23)cc(OC)c1OC
5.21

---

# study-system: Cyclin-G-associated kinase (Homo sapiens)
# Sequence (O14976 whole entry, the tested form may be a part): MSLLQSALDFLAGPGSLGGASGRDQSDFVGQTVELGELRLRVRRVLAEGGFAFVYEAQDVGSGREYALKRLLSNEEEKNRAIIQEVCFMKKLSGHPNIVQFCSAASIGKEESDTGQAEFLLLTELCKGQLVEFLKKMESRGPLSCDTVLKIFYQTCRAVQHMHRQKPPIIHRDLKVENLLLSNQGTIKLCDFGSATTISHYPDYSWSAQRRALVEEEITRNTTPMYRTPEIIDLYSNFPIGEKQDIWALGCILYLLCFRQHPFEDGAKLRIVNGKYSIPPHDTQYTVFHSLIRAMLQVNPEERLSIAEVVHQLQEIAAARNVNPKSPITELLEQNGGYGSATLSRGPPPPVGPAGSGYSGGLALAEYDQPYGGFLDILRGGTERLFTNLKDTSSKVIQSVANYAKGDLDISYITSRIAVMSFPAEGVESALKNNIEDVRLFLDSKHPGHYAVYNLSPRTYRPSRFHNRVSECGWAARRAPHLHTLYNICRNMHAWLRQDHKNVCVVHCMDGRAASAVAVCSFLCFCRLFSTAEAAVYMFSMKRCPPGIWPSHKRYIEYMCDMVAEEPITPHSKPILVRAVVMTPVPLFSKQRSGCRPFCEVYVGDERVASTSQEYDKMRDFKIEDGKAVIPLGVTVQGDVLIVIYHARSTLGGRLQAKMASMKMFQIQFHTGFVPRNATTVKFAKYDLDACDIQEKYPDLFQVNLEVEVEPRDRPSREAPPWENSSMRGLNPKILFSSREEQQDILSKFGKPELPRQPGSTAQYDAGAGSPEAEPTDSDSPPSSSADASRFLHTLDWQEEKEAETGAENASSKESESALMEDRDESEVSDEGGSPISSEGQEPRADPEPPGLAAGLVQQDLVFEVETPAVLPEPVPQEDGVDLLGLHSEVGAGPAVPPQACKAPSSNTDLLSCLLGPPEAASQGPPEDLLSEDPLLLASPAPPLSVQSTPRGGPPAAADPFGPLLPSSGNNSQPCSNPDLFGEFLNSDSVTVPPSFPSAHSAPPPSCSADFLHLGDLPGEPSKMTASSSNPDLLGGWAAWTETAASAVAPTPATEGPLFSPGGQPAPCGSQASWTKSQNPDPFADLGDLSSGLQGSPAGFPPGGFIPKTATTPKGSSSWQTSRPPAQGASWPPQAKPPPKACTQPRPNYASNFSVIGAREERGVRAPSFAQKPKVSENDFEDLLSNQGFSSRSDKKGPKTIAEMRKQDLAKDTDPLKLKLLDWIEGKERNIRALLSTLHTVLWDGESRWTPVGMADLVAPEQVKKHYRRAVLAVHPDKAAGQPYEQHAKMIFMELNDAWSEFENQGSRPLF
# test-protocol: Inhibition of tracer 5 binding to human N-terminal nano luciferase-fused GAK expressed in HEK293 cells measured after 2 hrs by nanoBRET assay
# Format: cell-based
measure: log10 IC50 (log10 of the value in nM)
The common logarithm of IC50 in nM is what is listed.

Reference set (5 entries):
smiles-str: COc1cc2ncc(C#N)c(Nc3cccc(Br)c3)c2cc1OC
study-system: Cyclin-G-associated kinase (Homo sapiens)
measure: log10 IC50
test-result: 2.11
//
smiles-str: COc1cc2ncc(C#N)c(Nc3cc(OC)c(OC)c(OC)c3)c2cc1OC
study-system: Cyclin-G-associated kinase (Homo sapiens)
measure: log10 IC50
test-result: 0.38
//
smiles-str: COc1cc2nccc(Nc3cccc(Br)c3)c2cc1OC
study-system: Cyclin-G-associated kinase (Homo sapiens)
measure: log10 IC50
test-result: 2.71
//
smiles-str: COc1cc2ncnc(Nc3cc(OC)c(OC)c(OC)c3)c2cc1OC
study-system: Cyclin-G-associated kinase (Homo sapiens)
measure: log10 IC50
test-result: 2.54
//
smiles-str: C#Cc1cccc(Nc2c(C#N)cnc3cc(OC)c(OC)cc23)c1
study-system: Cyclin-G-associated kinase (Homo sapiens)
measure: log10 IC50
test-result: 1.49

Please list log10 IC50 recorded for the compound COc1cc2ncnc(Nc3cccc(Br)c3)c2cc1OC
2.41

---

Observed Kd, system UniProtKB P00533.
Reply numerically in nM, unit not repeated.

Recorded Kd, per entry:
smiles-str: C#Cc1cccc(Nc2ccnc3cc(OCCOC)c(OCCOC)cc23)c1
Kd, nM: 390
--
smiles-str: C#Cc1cccc(Nc2c(C#N)cnc3cc(OC)c(OC)cc23)c1
Kd, nM: 1.8
--
smiles-str: COc1cc2ncc(C#N)c(Nc3cc(OC)c(OC)c(OC)c3)c2cc1OC
Kd, nM: 7.4
--
smiles-str: COc1cccc(Nc2ncnn3ccc(CN4CC[C@@H](N)[C@H](O)C4)c23)c1
Kd, nM: 220

Note: attention shifts to another entry.
Give Kd; test system UniProtKB P00533; compound COc1cc2nccc(Nc3ccc(OCc4cccc(F)c4)c(Cl)c3)c2cc1OC
32

---

# study-system: Activated CDC42 kinase 1 (Homo sapiens)
# Sequence (Q07912 whole entry, the tested form may be a part): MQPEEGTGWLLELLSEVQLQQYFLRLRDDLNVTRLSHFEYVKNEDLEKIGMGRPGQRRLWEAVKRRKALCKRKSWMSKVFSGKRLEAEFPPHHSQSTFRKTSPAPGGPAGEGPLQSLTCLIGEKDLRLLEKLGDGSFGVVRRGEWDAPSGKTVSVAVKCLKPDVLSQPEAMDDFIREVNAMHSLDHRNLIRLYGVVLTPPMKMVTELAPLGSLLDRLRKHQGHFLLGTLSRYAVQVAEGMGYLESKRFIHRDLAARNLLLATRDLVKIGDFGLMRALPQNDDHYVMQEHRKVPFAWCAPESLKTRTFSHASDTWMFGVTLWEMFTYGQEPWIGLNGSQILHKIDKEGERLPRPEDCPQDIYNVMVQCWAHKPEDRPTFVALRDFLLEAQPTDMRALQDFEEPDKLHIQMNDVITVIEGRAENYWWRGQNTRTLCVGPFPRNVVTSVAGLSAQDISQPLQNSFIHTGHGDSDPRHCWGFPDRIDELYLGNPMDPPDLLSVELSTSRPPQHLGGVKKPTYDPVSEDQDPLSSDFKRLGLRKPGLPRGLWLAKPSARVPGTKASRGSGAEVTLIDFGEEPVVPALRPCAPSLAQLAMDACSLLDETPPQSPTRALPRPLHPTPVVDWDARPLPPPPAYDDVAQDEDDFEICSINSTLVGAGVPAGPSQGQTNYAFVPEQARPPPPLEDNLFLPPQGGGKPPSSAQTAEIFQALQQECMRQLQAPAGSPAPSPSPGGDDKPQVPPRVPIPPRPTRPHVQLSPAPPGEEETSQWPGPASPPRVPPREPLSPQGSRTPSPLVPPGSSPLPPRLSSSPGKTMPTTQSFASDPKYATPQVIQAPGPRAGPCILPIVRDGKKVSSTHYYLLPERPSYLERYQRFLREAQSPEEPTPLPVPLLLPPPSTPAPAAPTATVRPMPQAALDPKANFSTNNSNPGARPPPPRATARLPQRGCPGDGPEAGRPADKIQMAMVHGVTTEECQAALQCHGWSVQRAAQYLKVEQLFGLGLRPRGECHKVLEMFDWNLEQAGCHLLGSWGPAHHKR
# test-protocol: Binding affinity to wild-type human partial length TNK2 (S159 to D474 residues) expressed in bacterial expression system by Kinomescan method
measure: Kd

Report Kd, nothing else, for this compound: COc1cccc(Nc2ncnn3ccc(CN4CC[C@@H](N)[C@H](O)C4)c23)c1
< 0.225 µM

---

# study-system: Tyrosine-protein kinase ABL1 (Homo sapiens)
# Sequence (P00519 whole entry): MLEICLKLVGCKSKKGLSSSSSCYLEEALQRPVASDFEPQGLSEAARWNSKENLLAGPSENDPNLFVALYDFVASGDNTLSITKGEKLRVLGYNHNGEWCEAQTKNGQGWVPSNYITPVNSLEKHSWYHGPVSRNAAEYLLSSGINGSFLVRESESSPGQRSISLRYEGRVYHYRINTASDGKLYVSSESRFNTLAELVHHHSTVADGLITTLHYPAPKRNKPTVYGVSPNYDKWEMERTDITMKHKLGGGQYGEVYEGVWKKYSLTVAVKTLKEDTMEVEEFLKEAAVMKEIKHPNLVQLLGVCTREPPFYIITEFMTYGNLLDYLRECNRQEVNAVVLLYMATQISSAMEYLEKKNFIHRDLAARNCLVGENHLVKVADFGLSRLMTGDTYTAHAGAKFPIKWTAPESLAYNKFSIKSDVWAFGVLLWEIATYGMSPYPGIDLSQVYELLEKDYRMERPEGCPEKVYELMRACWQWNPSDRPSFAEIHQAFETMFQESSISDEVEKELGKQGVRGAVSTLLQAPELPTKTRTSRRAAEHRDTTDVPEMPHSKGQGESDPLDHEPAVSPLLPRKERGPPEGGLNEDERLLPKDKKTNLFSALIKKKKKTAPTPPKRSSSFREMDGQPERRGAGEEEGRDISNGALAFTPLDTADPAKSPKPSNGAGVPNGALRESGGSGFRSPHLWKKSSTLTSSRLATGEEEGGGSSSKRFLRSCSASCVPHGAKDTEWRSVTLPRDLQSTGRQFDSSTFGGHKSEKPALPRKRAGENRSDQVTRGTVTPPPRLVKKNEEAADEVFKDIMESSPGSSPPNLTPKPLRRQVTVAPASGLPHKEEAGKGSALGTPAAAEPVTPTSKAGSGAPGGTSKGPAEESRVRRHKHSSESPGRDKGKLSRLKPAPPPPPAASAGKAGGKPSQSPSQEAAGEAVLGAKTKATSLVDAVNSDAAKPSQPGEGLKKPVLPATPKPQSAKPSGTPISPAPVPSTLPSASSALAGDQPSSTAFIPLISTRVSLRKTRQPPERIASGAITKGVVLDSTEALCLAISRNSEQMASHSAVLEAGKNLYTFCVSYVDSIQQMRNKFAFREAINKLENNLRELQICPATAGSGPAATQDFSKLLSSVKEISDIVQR
measure: Kd

Return the recorded Kd value; entry: COc1cccc(Nc2ncnn3ccc(CN4CC[C@@H](N)[C@H](O)C4)c23)c1
< 225 nM

---

Measured inhibition, listed per entry.
# study-system: Cyclin-G-associated kinase (Homo sapiens)
# test-protocol: Inhibition of tracer 5 binding to human N-terminal nano luciferase-fused GAK expressed in HEK293 cells at 5 uM measured after 2 hrs by nanoBRET assay relative to control
# Format: cell-based
The reply must contain the numeric value and, after it, the unit.

smiles-str: COc1cc2ncnc(Nc3ccc(OCc4cccc(F)c4)c(Cl)c3)c2cc1OC
inhibition: 12%

smiles-str: CS(=O)(=O)CCNCc1ccc(-c2ccc3ncnc(Nc4ccc(OCc5cccc(F)c5)c(Cl)c4)c3c2)o1
inhibition: 0%

smiles-str: COc1cc2nccc(Nc3ccc(OCc4cccc(F)c4)c(Cl)c3)c2cc1OC
inhibition: 22%

smiles-str: COc1cc(Nc2cc(C)nc3ccc(C(F)(F)F)cc23)cc(OC)c1OC
inhibition: 0%

Kindly indicate its recorded inhibition. Item: COc1cc(N(C)c2ccnc3ccc(C(F)(F)F)cc23)cc(OC)c1OC
7%

Give inhibition for COc1cc(Nc2ncnc3ccc(C(F)(F)F)cc23)cc(OC)c1OC
60%

Answer with the recorded inhibition for the molecule listed here: CC(C)(C)S(=O)(=O)c1cc2c(Nc3ccc4scnc4c3)ncnc2cc1OCCO
0%
